Listed next: entries and their corresponding heart rate at 72 hpf.
Tested on: Danio rerio embryo (fli1:egfp)
TEST METHOD NOTES: heart rate at 72 hpf (beats per minute); higher = faster heart rate
RUN PARAMETERS: 0.195 µM; exposure: 5-72 hpf
VALUE KIND: heart rate at 72 hpf

molecule=N#Cc1c(Cl)c(Cl)c(Cl)c(C#N)c1Cl target_under_test="Danio rerio embryo (fli1:egfp)" value_kind="heart rate at 72 hpf" measurement=154
molecule="CC(C)[C@H](C(=O)O[C@H](C#N)c1cccc(Oc2ccccc2)c1)c1ccc(Cl)cc1 [Esfenvalerate]" target_under_test="Danio rerio embryo (fli1:egfp)" value_kind="heart rate at 72 hpf" measurement=196
molecule=Cc1nn(-c2cc(NS(C)(=O)=O)c(Cl)cc2Cl)c(=O)n1C(F)F target_under_test="Danio rerio embryo (fli1:egfp)" value_kind="heart rate at 72 hpf" measurement=158
molecule=O=C(O)c1cc(Oc2ccc(C(F)(F)F)cc2Cl)ccc1[N+](=O)[O-] target_under_test="Danio rerio embryo (fli1:egfp)" value_kind="heart rate at 72 hpf" measurement=166
molecule=CCN(Cc1c(F)cccc1Cl)c1c([N+](=O)[O-])cc(C(F)(F)F)cc1[N+](=O)[O-] target_under_test="Danio rerio embryo (fli1:egfp)" value_kind="heart rate at 72 hpf" measurement=177
molecule=CCc1nn(C)c(C(=O)NCc2ccc(C(C)(C)C)cc2)c1Cl target_under_test="Danio rerio embryo (fli1:egfp)" value_kind="heart rate at 72 hpf" measurement=160
